Experiment: AUC in Sprague-Dawley rat at 10 mg/kg, po qd
Assay type: ADME, organism-based
Parameters: dose 10 mg/kg, route oral
Settings: plasma
outcome measure: AUC (µM·h)
State the answer as a number, implicitly in µM·h.

Prompt: Suppose we examine the molecule CC1(C)Oc2nc(C(F)(F)F)nc(N)c2N=C1c1ccc2c(c1)CC[C@]21CC[C@@H](CC(=O)O)CC1 ; what AUC value has been reported?
Completion: 11

---

Assay: AUC in C57BL/6J mouse at 0.3 mg/kg, po
Format: ADME, organism-based
Parameters: dose 0.3 mg/kg, route oral
Conditions: plasma
outcome measure: AUC (µM·h)
Quick note: give the figure in µM·h, leave out the unit.

Prompt: Find the recorded AUC belonging to CC1(C)Oc2ncnc(N)c2N=C1c1ccc([C@H]2CC[C@H](CC(=O)O)CC2)cc1 and report it.
Completion: 2.6

Prompt: Moving on to CC1(C)Oc2nc(C(F)(F)F)nc(N)c2N=C1c1ccc2c(c1)CC[C@]21CC[C@@H](CC(=O)O)CC1
Completion: 0.65

---

Experiment: Half life in Sprague-Dawley rat at 1 mg/kg, iv
Format: ADME, organism-based
Set-up: dose 1 mg/kg, route intravenous
Details: in vivo
outcome measure: half-life
# output: number + unit

Prompt: Recorded half-life for CC1(C)Oc2ncnc(N)c2N=C1c1ccc([C@H]2CC[C@H](CC(=O)O)CC2)cc1 , please?
Completion: 1.7 h

---

Assay: AUC in Sprague-Dawley rat at 2 mg/kg, po
Format: ADME, organism-based
Set-up: dose 2 mg/kg, route oral
Settings: plasma
outcome measure: AUC (µg·h/mL)
// note: answer is a bare numeric in µg·h/mL

Prompt: For CC1(C)Oc2ncnc(N)c2N=C1c1ccc([C@H]2CC[C@H](CC(=O)O)CC2)cc1 , what is its reported AUC?
Completion: 1.01

---

Assay: AUC in Sprague-Dawley rat at 30 mg/kg, po
Type: ADME, organism-based
Parameters: dose 30 mg/kg, route oral
Conditions: plasma
outcome measure: AUC (µM·h)
Give a bare numeral; the unit µM·h is implied.

Prompt: Requested field: AUC. Item: CC1(C)Oc2ncnc(N)c2N=C1c1ccc([C@H]2CC[C@H](CC(=O)O)CC2)cc1
Completion: 913

---

Test: AUC in CD1 mouse at 0.3 mg/kg, po
Assay type: ADME, organism-based
Design: dose 0.3 mg/kg, route oral
Conditions: plasma
outcome measure: AUC (ng·h/mL)
Give your result in ng·h/mL as a bare value.

Prompt: # query: AUC of entry CC1(C)Oc2nc(C(F)(F)F)nc(N)c2N=C1c1ccc2c(c1)CC[C@]21CC[C@@H](CC(=O)O)CC1
Completion: 341

---

Assay: AUC in Sprague-Dawley rat at 100 mg/kg, po
Assay type: ADME, organism-based
Parameters: dose 100 mg/kg, route oral
Details: plasma
outcome measure: AUC (µM·h)
Numbers only; they are read as µM·h.

Prompt: Given CC1(C)Oc2ncnc(N)c2N=C1c1ccc([C@H]2CC[C@H](CC(=O)O)CC2)cc1 , state its recorded AUC.
Completion: 3750

---

Experiment: Oral bioavailability in Sprague-Dawley rat at 2 mg/kg
Format: ADME, organism-based
Settings: in vivo
outcome measure: bioavailability (%)
Report the value in % with no unit label.

Prompt: Fill blank: measured bioavailability of the molecule CC1(C)Oc2ncnc(N)c2N=C1c1ccc([C@H]2CC[C@H](CC(=O)O)CC2)cc1 is ____.
Completion: 30
